- System: G-292-Clone-A141B1 (Osteosarcoma)
- procedure-text: combination Emax (second highest fraction inhibited in the dose matrix, 72 h); higher = more inhibition; extreme values may be limits of the assay
Decide by combination Emax: equal to or exceeding 0.3 means TRUE, less means FALSE.

The examples below pair each entry with its known result.
compound | label-value
CC1(C)CCC(CN2CCN(c3ccc(C(=O)NS(=O)(=O)c4ccc(NCC5CCOCC5)c([N+](=O)[O-])c4)c(Oc4cnc5[nH]ccc5c4)c3)CC2)=C(c2ccc(Cl)cc2)C1 [Venetoclax] + C=CCn1c(=O)c2cnc(Nc3ccc(N4CCN(C)CC4)cc3)nc2n1-c1cccc(C(C)(C)O)n1 [AZD1775] (first compound max 1 µM, partner max 1 µM) | FALSE
CS(=O)(=O)CCNCc1ccc(-c2ccc3ncnc(Nc4ccc(OCc5cccc(F)c5)c(Cl)c4)c3c2)o1 [Lapatinib] + Cn1cnc2c(F)c(Nc3ccc(Br)cc3Cl)c(C(=O)NOCCO)cc21 [Selumetinib] (first compound max 10 µM, 7x7, partner max 10 µM) | FALSE
Cc1c2c(nn1C)CSCc1cc(n(C)n1)CSc1cc(c3ccccc3c1)OCCCc1c(C(=O)O)n(C)c3c-2c(Cl)ccc13 [AZD5991] + CCN(CCO)CCCOc1ccc2c(Nc3cc(CC(=O)Nc4cccc(F)c4)[nH]n3)ncnc2c1 [AZD2811] (first compound max 1 µM, 7x7, partner max 1 µM) | FALSE
Cc1c2c(nn1C)CSCc1cc(n(C)n1)CSc1cc(c3ccccc3c1)OCCCc1c(C(=O)O)n(C)c3c-2c(Cl)ccc13 [AZD5991] + C[C@@H]1COCCN1C2=NC(=NC(=C2)C3(CC3)[S@](=N)(=O)C)C4=C5C=CNC5=NC=C4 [AZD6738] (first compound max 1 µM, 7x7, partner max 10 µM) | FALSE
Cc1c2c(nn1C)CSCc1cc(n(C)n1)CSc1cc(c3ccccc3c1)OCCCc1c(C(=O)O)n(C)c3c-2c(Cl)ccc13 [AZD5991] + Cn1cnc2c(F)c(Nc3ccc(Br)cc3Cl)c(C(=O)NOCCO)cc21 [Selumetinib] (first compound max 1 µM, 7x7, partner max 3 µM) | FALSE

QUERY: Threshold query (combination Emax >= 0.3) on CN(CCO)CC[C@H](CSc1ccccc1)Nc1ccc(S(=O)(=O)NC(=O)c2ccc(N3CCC([C@@H](O)c4ccccc4-c4ccc(Cl)cc4)CC3)cc2)cc1S(=O)(=O)C(F)(F)F [AZD4320] + C[C@@H]1COCCN1C2=NC(=NC(=C2)C3(CC3)[S@](=N)(=O)C)C4=C5C=CNC5=NC=C4 [AZD6738] (first compound max 1 µM, 7x7, partner max 10 µM)
RESULT: TRUE

QUERY: Next compound: NC1(C(=O)N[C@@H](CCO)c2ccc(Cl)cc2)CCN(c2ncnc3[nH]ccc23)CC1 [Capivasertib] + Cn1cnc2c(F)c(Nc3ccc(Br)cc3Cl)c(C(=O)NOCCO)cc21 [Selumetinib] (first compound max 10 µM, 7x7, partner max 10 µM)
RESULT: TRUE

---

- Test system: MFH-ino (Other Solid Carcinomas);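 note: after 72 h of two-drug dosing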
- procedure-text: Bliss excess, mean over the matrix (fraction); higher = more synergy
result-type: Bliss excess
One number for each entry.

Each molecule below has a recorded value; state its Bliss excess.
1. CS(=O)(=O)CCNCc1ccc(-c2ccc3ncnc(Nc4ccc(OCc5cccc(F)c5)c(Cl)c4)c3c2)o1 [Lapatinib] + C[C@@H](Oc1cc(-c2cnn(C3CCNCC3)c2)cnc1N)c1c(Cl)ccc(F)c1Cl [Crizotinib] (first compound max 10 µM, 7x7, partner max 10 µM)
2. CC1(C)CCC(CN2CCN(c3ccc(C(=O)NS(=O)(=O)c4ccc(NCC5CCOCC5)c([N+](=O)[O-])c4)c(Oc4cnc5[nH]ccc5c4)c3)CC2)=C(c2ccc(Cl)cc2)C1 [Venetoclax] + C1CN(CCC1(C(=O)N[C@@H](CCO)C2=CC=C(C=C2)Cl)N)C3=NC=NC4=C3C=CN4 [Capivasertib] (first compound max 1 µM, 7x7, partner max 3 µM)
3. CCN(CCO)CCCOc1ccc2c(Nc3cc(CC(=O)Nc4cccc(F)c4)[nH]n3)ncnc2c1 [AZD2811] + O=C(c1cc(Cc2n[nH]c(=O)c3ccccc23)ccc1F)N1CCN(C(=O)C2CC2)CC1 [Olaparib] (first compound max 1 µM, 7x7, partner max 10 µM)

RESULT:
[-0.0902, -0.0294, -0.0318]

Each molecule below has a recorded value; state its Bliss excess.
1. Cc1c2c(nn1C)CSCc1cc(n(C)n1)CSc1cc(c3ccccc3c1)OCCCc1c(C(=O)O)n(C)c3c-2c(Cl)ccc13 [AZD5991] + C1CN(CCC1(C(=O)N[C@@H](CCO)C2=CC=C(C=C2)Cl)N)C3=NC=NC4=C3C=CN4 [Capivasertib] (first compound max 1 µM, 7x7, partner max 3 µM)
2. COc1nnc2ccc(N3CCC(c4ccc(OCCN5CCN(C)C(=O)[C@H]5C)cc4)CC3)nn12 [AZD5153] + Cn1cnc2c(F)c(Nc3ccc(Br)cc3Cl)c(C(=O)NOCCO)cc21 [Selumetinib] (first compound max 1 µM, 7x7, partner max 10 µM)
3. CC1(C)CCC(CN2CCN(c3ccc(C(=O)NS(=O)(=O)c4ccc(NCC5CCOCC5)c([N+](=O)[O-])c4)c(Oc4cnc5[nH]ccc5c4)c3)CC2)=C(c2ccc(Cl)cc2)C1 [Venetoclax] + CS(=O)(=O)CCNCc1ccc(-c2ccc3ncnc(Nc4ccc(OCc5cccc(F)c5)c(Cl)c4)c3c2)o1 [Lapatinib] (first compound max 1 µM, 7x7, partner max 10 µM)
4. CN(C)CCCOc1ccc(-c2ccc3ncc4c(c3c2)n(C2CCOCC2)c(=O)n4C)cn1 [AZD0156] + O=C(c1cc(Cc2n[nH]c(=O)c3ccccc23)ccc1F)N1CCN(C(=O)C2CC2)CC1 [Olaparib] (first compound max 3 µM, partner max 3 µM)

RESULT:
[-0.0372, -0.0031, -0.0699, -0.061]

src = the supplement of paper PMC11061612
